Entries and their inhibition values follow.
Tested on: Radical scavenging activity
protocol description: Antioxidant activity assessed as inhibition of DPPH radical production at 54.05 ug/ml after 30 min by microplate assay
Type: functional

| molecule | inhibition [%] |
| --- | --- |
| O=c1c(O)c(-c2ccc(O)c(O)c2)oc2c(O)ccc(O)c12 | 2.63 |
| O=c1c(O[C@@H]2O[C@H](CO)[C@@H](O)[C@H](O)[C@H]2O)c(-c2ccc(O)cc2)oc2cc(O)cc(O)c12 | 1.96 |
| O=c1c(O)c(-c2ccc(O)cc2)oc2cc(O)cc(O)c12 | 90.1 |
| O=c1c(O[C@@H]2O[C@H](CO)[C@@H](O)[C@H](O)[C@H]2O)c(-c2ccc(O)c(O)c2)oc2cc(O)cc(O)c12 | 86.1 |
| O=c1c(O[C@@H]2O[C@H](CO)[C@H](O)[C@H](O)[C@H]2O)c(-c2ccc(O)c(O)c2)oc2cc(O)cc(O)c12 [HYPEROSIDE] | 86.5 |

Origin of measurements: ChEMBL document CHEMBL3046526
